pIC50: −log10 of the molar value.
metric name: pIC50

# returns recorded pIC50 (system: BCL-2 (binding to BAD peptide) (Homo sapiens, UniProt P10415)) for CCCCN(CCCC)C(=O)c1cc(C)n(-c2ccc(NC(=O)Cc3nc(-c4ccccc4)oc3C)cc2C(=O)N2Cc3ccccc3C[C@H]2CO)n1
# Sequence (P10415 whole entry): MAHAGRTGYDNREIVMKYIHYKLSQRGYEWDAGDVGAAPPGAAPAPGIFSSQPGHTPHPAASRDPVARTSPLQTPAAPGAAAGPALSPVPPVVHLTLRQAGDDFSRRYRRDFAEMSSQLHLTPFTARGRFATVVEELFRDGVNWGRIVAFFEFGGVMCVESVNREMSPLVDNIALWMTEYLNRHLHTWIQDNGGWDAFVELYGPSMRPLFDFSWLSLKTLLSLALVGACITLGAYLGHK
6.86 to 6.88

# returns recorded pIC50 (system: BCL-2 (binding to BAD peptide) (Homo sapiens, UniProt P10415)) for CCCCN(CCCC)C(=O)c1cc(C)n(-c2ccc(NC(=O)Cc3cccc(Cl)c3)cc2C(=O)N2Cc3ccccc3C[C@H]2CO)n1
7.22

# returns recorded pIC50 (system: BCL-2 (binding to BAD peptide) (Homo sapiens, UniProt P10415)) for CCCCN(CCCC)C(=O)c1cc(C)n(-c2ccc(NC(=O)Oc3ccccc3)cc2C(=O)N2Cc3ccccc3C[C@H]2CO)n1
6.28 to 6.30

# returns recorded pIC50 (system: BCL-2 (binding to BAD peptide) (Homo sapiens, UniProt P10415)) for CCCCN(CCCC)C(=O)c1cc(C)n(-c2ccc(NC(=O)COc3ccc(C(C)C)cc3)cc2C(=O)N2Cc3ccccc3C[C@H]2CO)n1
6.60 to 6.72

# returns recorded pIC50 (system: BCL-2 (binding to BAD peptide) (Homo sapiens, UniProt P10415)) for CCCCN(CCCC)C(=O)c1cc(C)n(-c2ccc(NC(=O)OCC)cc2C(=O)N2Cc3ccccc3C[C@H]2CO)n1
6.22 to 6.23

# returns recorded pIC50 (system: BCL-2 (binding to BAD peptide) (Homo sapiens, UniProt P10415)) for CCCCC(CCCC)C(=O)c1cc(C)n(-c2ccc(NC(=O)COc3ccc(N4CCCC4=O)cc3)cc2C(=O)N2Cc3ccccc3C[C@H]2CO)n1
6.06 to 6.07

# credit: patent US20140357633A1
